System: P388 leukemia ip, CD2F1 mice, survival T/C
ASSAY NAME: NCI In Vivo Anticancer Drug Screen. Data for tumor model P388 Leukemia (intraperitoneal) in CD2F1 (CDF1) mice
CONDITION DESCRIPTION: endpoint: median survival time; dose: 120.0 mg/kg/injection; schedule: Q01DX005 (ip); vehicle: saline with Tween-80; higher = longer survival
Inconclusive results and toxic doses are left out.
Give T/C for every item shown.

Quick check: T/C of O=C(CCCl)Nc1ccccc1C(=O)CCc1cn(C(=O)CCCl)c2ccccc12 ?
102 % of control

# repeat for COc1ccc(C(=O)c2c(C(=O)NOCCCc3ccccc3)[nH]c(=O)c(C#N)c2C(=O)NOCCCc2ccccc2)cc1
96 % of control

Also COC(=O)[C@@H]1CCC(/C(C#N)=C2/CC[C@@H](C(=O)OC)N2)=N1 , if possible.
95 % of control

Continue with CSc1ncc(Br)c(Sc2nccn2C)n1
117 % of control

Input CN(Nc1ccnc(=O)[nH]1)c1ccccc1
102 % of control

And for CC(=O)OCC1CC2COCC2CC1COC(C)=O (centres undefined) ?
108 % of control

Also, Cc1csc2ccccc12 please.
100 % of control

Try this compound too: O=C(Nc1c(Cl)cccc1Cl)Nc1c(Cl)cccc1Cl
92 % of control

Query c1ccc2c(SC3CCC4CC5CC4C3C5)nccc2c1 (centres undefined) next
94 % of control

Try O=C1c2ccccc2C(=O)N1CCc1ncc[nH]1 next.
99 % of control

Next up: O=C1CN2CCN3CC(=O)NC(=O)[C@H]3[C@H]2C(=O)N1
101 % of control

Param item: CN1c2ccccc2C(=O)N2C(=O)CCC21C (centres undefined)
88 % of control

How about Cc1cc2cc3n(c2nn1)N=C(Cl)CC3 ?
101 % of control

Next compound: O/N=C(/c1ccccc1)n1nnc2ccccc21
106 % of control

Cool, now O=[N+]([O-])c1oc2ccc3ccccc3c2c1CCO
110 % of control

For O=c1n2ccccc2nc2nc3ccccc3n12 then?
86 % of control

Now give it for CN1CCC2c3c([nH]c4ccccc34)C(C)(C)OC2C1 (centres undefined) too.
113 % of control

Quick one: COC(=O)CC1C(C)(C)C(=O)C2CC3=C4CC(=O)OC(c5ccoc5)C4(C)CCC3C1(C)C2=O (centres undefined)
92 % of control

Consider next the compound Cc1ccc(S(=O)(=O)OCCC(C)OS(=O)(=O)c2ccc(C)cc2)cc1 (centres undefined) in the same way.
100 % of control

Then Cc1cc2[nH]c3c(C#N)c(O)c(C)c(=O)n3c2cc1C ?
100 % of control

What would you report for COCc1onc(-c2ccc(OC)cc2)c1-c1ccc(OC)cc1 ?
100 % of control

Follow-up entry: CCC(c1ccc(O)cc1)C(CC)c1ccc(OCC(N)=O)cc1 (centres undefined)
94 % of control

Next entry: O=C(CNC(=O)c1ccccc1)N/N=C\c1c[nH]c2ccccc12
100 % of control

O=[N+]([O-])c1ccccc1NC1CCN(CCCC2(c3ccc(F)cc3)OCCO2)CC1 ?
101 % of control

----------
Tested on: P388 leukemia ip, CD2F1 mice, survival T/C
ASSAY NAME: NCI In Vivo Anticancer Drug Screen. Data for tumor model P388 Leukemia (intraperitoneal) in CD2F1 (CDF1) mice
CONDITION DESCRIPTION: endpoint: median survival time; dose: 12.5 mg/kg/injection; schedule: Q01DX005 (ip); vehicle: saline; higher = longer survival
Inconclusive results and toxic doses are left out.
Can you tell me T/C for the items I'm about to list?

Report T/C for O=[C-]c1ccccc1[C-]=O.[I][Ni+2][I] please.
94 % of control

Another compound: COc1cc(NCC(C)(O)CN2CCCC(C)C2C)c2ncccc2c1 (centres undefined)
97 % of control

Same lookup for C#CCOCCCC(=C)C , please.
100 % of control

Next compound up: CCCCN(CCCC)C(=N)c1ccnc2ccccc12
97 % of control
